# study-system: factor Xa (Homo sapiens)
# assay-info: Factor Xa amidolytic assay (chromogenic substrate S-2765)
The threshold is 9 nM. Values of IC50 beneath it are tagged True; values meeting or exceeding it are tagged False.

Dear colleague, could you confirm whether IC50 of CC(=N)N1CCC(Oc2ccc3c(c2)C=CS(=O)(=O)N3Cc2ccc3ccc(C(=N)N)cc3c2)CC1 falls below 9 nM? Thanks. True

Dear colleague, could you confirm whether IC50 of CC(=N)N1CCC(Oc2ccc(N(Cc3cccc(-c4cccc(C(=N)N)c4)c3)S(=O)(=O)CC(=O)O)cc2)CC1 falls below 9 nM? Thanks. True

Dear colleague, could you confirm whether IC50 of N=C(N)c1ccc2ccc(CN3c4ccc(OC5CCN(C(=N)N)CC5)cc4CCS3(=O)=O)cc2c1 falls below 9 nM? Thanks. False

Dear colleague, could you confirm whether IC50 of CS(=O)(=O)N(Cc1ccc2ccc(C(=N)N)cc2c1)c1ccc(C(=O)N2CCC[C@H]2C(N)=O)cc1 falls below 9 nM? Thanks. False

Dear colleague, could you confirm whether IC50 of NC(=O)c1ccc2ccc(CN3c4ccc(OC5CCNCC5)cc4CCS3(=O)=O)cc2c1 falls below 9 nM? Thanks. False

* * *

# study-system: factor Xa (Homo sapiens, UniProt P00742)
# Sequence (P00742 235-488 limits assumed): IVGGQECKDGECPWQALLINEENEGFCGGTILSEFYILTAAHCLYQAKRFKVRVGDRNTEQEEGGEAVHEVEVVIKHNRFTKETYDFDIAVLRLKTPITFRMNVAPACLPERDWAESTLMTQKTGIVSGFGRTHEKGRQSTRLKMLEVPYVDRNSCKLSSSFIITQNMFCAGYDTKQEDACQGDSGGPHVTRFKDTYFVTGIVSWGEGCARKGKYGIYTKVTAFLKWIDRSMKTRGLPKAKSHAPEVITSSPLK
# Sequence (P00742 41-179 limits assumed): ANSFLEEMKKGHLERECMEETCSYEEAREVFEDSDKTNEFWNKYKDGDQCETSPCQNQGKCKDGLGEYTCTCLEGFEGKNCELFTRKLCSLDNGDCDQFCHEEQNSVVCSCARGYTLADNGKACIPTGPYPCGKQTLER
# assay-info: Factor Xa amidolytic assay (chromogenic substrate S-2765)
# setup-conditions: read-out: XA; Examples 1-26 table
quantity: IC50
Please don't drop the unit; write it after the number.

Let me know recorded IC50 for CS(=O)(=O)N(Cc1ccc2ccc(C(=N)N)cc2c1)c1ccc(C(=O)N2CCCC2C(N)=O)cc1 (stereo not shown) [Example 24] , thanks. 3.44 µM

* * *

// UniProtKB P00750 IC50 records
Sequence (P00750 36-562, species assumed): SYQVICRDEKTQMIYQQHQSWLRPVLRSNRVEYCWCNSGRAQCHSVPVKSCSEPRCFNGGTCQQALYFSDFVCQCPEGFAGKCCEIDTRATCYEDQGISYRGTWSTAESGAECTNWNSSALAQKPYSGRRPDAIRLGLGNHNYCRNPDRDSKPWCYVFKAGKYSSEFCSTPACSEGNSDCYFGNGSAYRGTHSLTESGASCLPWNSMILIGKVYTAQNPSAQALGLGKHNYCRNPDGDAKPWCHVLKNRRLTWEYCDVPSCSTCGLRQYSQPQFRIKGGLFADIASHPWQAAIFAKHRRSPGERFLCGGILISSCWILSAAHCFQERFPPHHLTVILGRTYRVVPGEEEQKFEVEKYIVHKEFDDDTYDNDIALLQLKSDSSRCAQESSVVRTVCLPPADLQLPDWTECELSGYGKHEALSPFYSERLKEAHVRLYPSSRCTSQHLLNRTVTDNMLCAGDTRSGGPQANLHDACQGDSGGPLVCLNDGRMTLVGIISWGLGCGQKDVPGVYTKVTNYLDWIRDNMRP
Numeric answer only, unit µM assumed.

Check out these entries, answers already filled in.
CC(=N)N1CCC(Oc2ccc3c(c2)CCS(=O)(=O)N3Cc2ccc3ccc(C(=N)N)cc3c2)CC1: 4.53
N=C(N)c1ccc2ccc(CN3c4ccc(OC5CCN(C(=N)N)CC5)cc4C=CS3(=O)=O)cc2c1: 1.21

Let's switch to this compound now.
Let me know recorded IC50 for N=C(N)c1ccc2ccc(CN3c4ccc(OC5CCN(C(=N)N)CC5)cc4CCS3(=O)=O)cc2c1 , thanks. 5.96

* * *

# study-system: PLASMIN (Homo sapiens)
# Sequence (P00747 581-810 limits assumed, species assumed): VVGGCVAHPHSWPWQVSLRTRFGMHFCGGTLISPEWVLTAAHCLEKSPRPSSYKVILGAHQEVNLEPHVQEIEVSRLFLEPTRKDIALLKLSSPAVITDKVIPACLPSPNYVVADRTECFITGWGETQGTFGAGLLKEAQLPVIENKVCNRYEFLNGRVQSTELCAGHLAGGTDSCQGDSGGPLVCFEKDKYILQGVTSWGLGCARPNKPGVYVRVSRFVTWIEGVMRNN
# Sequence (P00747 97-580 limits assumed, species assumed): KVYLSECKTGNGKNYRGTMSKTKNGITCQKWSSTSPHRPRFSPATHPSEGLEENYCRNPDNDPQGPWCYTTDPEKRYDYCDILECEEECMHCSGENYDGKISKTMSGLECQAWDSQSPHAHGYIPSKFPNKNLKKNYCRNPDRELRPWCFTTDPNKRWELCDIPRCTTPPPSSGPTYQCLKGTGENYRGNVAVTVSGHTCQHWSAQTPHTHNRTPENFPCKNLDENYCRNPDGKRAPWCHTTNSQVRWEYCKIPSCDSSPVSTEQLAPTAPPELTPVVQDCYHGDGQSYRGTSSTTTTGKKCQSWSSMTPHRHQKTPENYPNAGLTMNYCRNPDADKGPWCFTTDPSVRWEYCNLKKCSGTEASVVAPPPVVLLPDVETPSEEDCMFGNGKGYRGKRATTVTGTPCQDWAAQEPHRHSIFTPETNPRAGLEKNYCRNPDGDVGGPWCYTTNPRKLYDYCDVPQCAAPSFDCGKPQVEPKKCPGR
quantity: IC50
Please don't drop the unit; write it after the number.

State IC50 on PLASMIN (Homo sapiens). Entry: CC(=N)N1CCC(Oc2ccc3c(c2)C=CS(=O)(=O)N3Cc2ccc3ccc(C(=N)N)cc3c2)CC1 2350 nM

* * *

# study-system: thrombin (Homo sapiens)
pIC50: −log10 of the molar value.
Lab note: anything with pIC50 at or over 4 counts as true; the rest go in false.

CC(=N)N1CCC(Oc2ccc(N(Cc3cc4cc(C(=N)N)ccc4s3)S(=O)(=O)CC(=O)O)cc2)CC1: false

Hi team, for CC(=N)N1CCC(Oc2ccc(N(Cc3cccc(-c4cccc(C(=N)N)c4)c3)S(=O)(=O)CC(=O)O)cc2)CC1 , is the recorded pIC50 at or above 4? true

Hi team, for N=C(N)c1ccc2ccc(CN3c4ccc(OC5CCN(C(=N)N)CC5)cc4CCS3(=O)=O)cc2c1 , is the recorded pIC50 at or above 4? true

Hi team, for CC(=N)N1CCC(Oc2ccc(N(Cc3cccc(-c4cccc(C(=N)N)c4)c3)S(C)(=O)=O)cc2)CC1 , is the recorded pIC50 at or above 4? false

Hi team, for CC(=N)N1CCC(Oc2ccc(N(Cc3cc4cc(C(=N)N)ccc4n3C)S(C)(=O)=O)cc2)CC1 , is the recorded pIC50 at or above 4? true

* * *

# study-system: factor Xa (Homo sapiens, UniProt P00742)
# assay-info: Factor Xa amidolytic assay (chromogenic substrate S-2765)
Classes (IC50): low = under 9 nM, mid = from 9 nM up to 30 nM, high = 30 nM and over

Consider the following illustrative entries.
N=C(N)c1ccc2ccc(CN3c4ccc(OC5CCN(C(=N)N)CC5)cc4C=CS3(=O)=O)cc2c1: mid
CC(=N)N1CCC(Oc2ccc(N(Cc3ccc(-c4cccc(C(=N)N)c4)cc3)S(C)(=O)=O)cc2)CC1: mid
N=C(N)c1ccc2ccc(CN3c4ccc(OC5CCNCC5)cc4CCS3(=O)=O)cc2c1: high
CC(=N)N1CCC(Oc2ccc(N(Cc3cc4cc(C(=N)N)ccc4s3)S(=O)(=O)CC(=O)O)cc2)CC1: low
CC(=N)N1CCC(Oc2ccc(N(Cc3ccc4ccc(C(=N)N)cc4c3)S(C)(=O)=O)cc2)CC1: low

Band for N=C(N)c1ccc2ccc(CN3c4ccc(OC5CCNCC5)cc4C=CS3(=O)=O)cc2c1 ? high

Band for CC(=N)N1CCC(Oc2ccc3c(c2)CCS(=O)(=O)N3Cc2ccc3ccc(C(=N)N)cc3c2)CC1 ? mid
